# TARGET: GTPase KRas [1-169,G12C,C118A] (Homo sapiens, UniProt P01116, C118A/G12C)
# Construct: 1-169
# Sequence (P01116 1-169 G12C/C118A): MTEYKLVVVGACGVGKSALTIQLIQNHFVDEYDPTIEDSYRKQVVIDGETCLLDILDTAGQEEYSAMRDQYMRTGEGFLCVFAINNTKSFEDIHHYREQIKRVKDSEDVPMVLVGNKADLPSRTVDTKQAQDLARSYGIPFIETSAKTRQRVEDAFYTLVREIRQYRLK
# PROTOCOL DETAILS: Coupled Nucleotide Exchange Assay (5min)
Catalogue of compounds with associated IC50
Give the value in µM but do not write µM after it.

Cc1ccnc(C(C)C)c1-n1c(=O)nc(N2CCN(C(=O)C=[N+]=[N-])C[C@@H]2C)c2cc(Cl)c(-c3ccccc3F)nc21	8.59

## Task May I ask what IC50 has been recorded for `Cc1ccnc(C(C)C)c1-n1c(=O)nc(N2CCN(C(=O)C=O)C[C@@H]2C)c2cc(Cl)c(-c3ccccc3F)nc21` ?
## Result 0.61
